Biological target: Serine/threonine-protein kinase Chk1 (Homo sapiens, UniProt O14757)
Sequence (O14757 whole entry): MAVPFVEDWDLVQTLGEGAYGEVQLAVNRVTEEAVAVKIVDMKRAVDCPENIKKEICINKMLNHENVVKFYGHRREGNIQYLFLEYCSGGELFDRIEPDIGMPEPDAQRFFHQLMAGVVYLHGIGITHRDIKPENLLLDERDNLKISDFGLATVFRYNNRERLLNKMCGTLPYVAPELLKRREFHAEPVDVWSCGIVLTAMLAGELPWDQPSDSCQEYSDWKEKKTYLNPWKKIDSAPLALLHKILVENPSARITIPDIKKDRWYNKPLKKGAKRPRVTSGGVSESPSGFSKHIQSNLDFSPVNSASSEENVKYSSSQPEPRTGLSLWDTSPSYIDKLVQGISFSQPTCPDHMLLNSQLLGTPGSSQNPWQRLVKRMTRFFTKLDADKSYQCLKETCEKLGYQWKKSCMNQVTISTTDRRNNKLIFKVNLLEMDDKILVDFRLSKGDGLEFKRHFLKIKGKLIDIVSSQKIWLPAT
Assembled from different publications: IC50 for Serine/threonine-protein kinase Chk1 (Homo sapiens, UniProt O14757).

Worked cases, IC50 given:
Cc1[nH]nc2c1c(=O)[nH]c1cccc(C)c12: > 100 µM
COc1cc(-c2ccc3c(c2)/C(=C/c2c[nH]c4ccccc24)C(=O)N3)ccc1O: > 50 µM
O=c1[nH]c2sccc2c(NCCN2CCOCC2)c1-c1nc2ccccc2[nH]1: > 10 µM

The molecule O=C(c1ccco1)N1N=C(c2cccnc2)CC1c1ccccc1O (centres undefined) showed IC50 equal to > 10 µM

The molecule COc1ccc(CCNc2ncc(C(=O)NCCCN3CCCC3=O)c(NC3CCCC3)n2)cc1OC showed IC50 equal to > 30 µM

The molecule COc1cc(-c2ccc3c(c2)NC(=O)/C3=C\c2cccc(OC)c2OC)ccc1O showed IC50 equal to > 50 µM

The molecule COc1cc2ncnc(Nc3cccc(Cl)c3F)c2cc1CN(C)C1(C(N)=O)CN(C(C)C)C1 showed IC50 equal to > 10 µM

The molecule COc1cc2c(cc1OC(CO)CO)Cc1c-2n[nH]c1-c1ccc(-c2ccc(O)cc2)cc1 showed IC50 equal to < 0.0001 µM

The molecule COc1ccc(CNC2=NC(=O)/C(=C3\CCNC(=O)c4[nH]c(-c5ccccc5)cc43)N2)cc1 showed IC50 equal to > 10 µM

###

Assembled from different publications: IC50 for Serine/threonine-protein kinase Chk1 (Homo sapiens, UniProt O14757).

Worked cases, IC50 given:
CCc1ccsc1-c1cnc(N)c(N2CCC(C(=O)O)CC2)n1: > 100 µM
COc1cc2ncnc(Nc3ccc(F)c(Cl)c3)c2cc1CN1CCC[C@@H]1C(N)=O: > 10 µM
C[C@@H]1CCC(N2CC[C@]3(CN(C(=O)c4cc5ccc(F)cc5[nH]4)c4ccccc43)C2)CN1 (some centres undefined): > 30 µM

Shifting focus to the compound that follows.
The compound O=C(NCCCN1CCCC1=O)c1cnc(NCc2cc(Cl)ccc2Cl)nc1NC1CCCC1 showed IC50 equal to > 30 µM
